Molecular target: Muscarinic acetylcholine receptor M4 (Homo sapiens)
Assay: human M4 muscarinic receptor antagonists, primary screen, CHO cells, Fluo-8 calcium fluorescence (AID 624125);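 further: 0% = acetylcholine EC80 with DMSO and 100% = DMSO without agonist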
Settings: CHO-hM4 cells, ACh EC80, Fluo-8 calcium fluorescence; at 3 µM
About 2,600 (0.72%) of roughly 360,000 compounds were called active.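 How the source made its calls: active means inhibition above its plate's cutoff, the mean inhibition of sample wells plus 3 SD (cut at about 27% in these data); inactive means the rest.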 Shown is part of a subset that was picked to be rich in actives.
Hi there, use one of these labels in your reply, thanks! active, inactive

In [3]: df
Out[3]:
                                   molecule  discrete_label
0  CN(C)CCCNC(=O)c1cc(C(=O)Cc2ccc(Cl)cc2)c[nH]1        inactive

Input line: What did the test return for COc1ccc(OC)c(/C=N/NC(=O)c2ccc[n+](CC(=O)c3ccccc3)c2)c1 ?
Output line: inactive

Input line: Do the same for OC(C#CCN1CCOCC1)(c1ccccc1)C1CCCCC1 (configuration not stated) please
Output line: inactive

Input line: Do the same for CSc1nc2nc(-c3cccc(C(F)(F)F)c3)ccn2n1 please
Output line: inactive

Input line: Do the same for COc1cc(/C=C2\SC(=O)NC2=O)ccc1OCc1ccc(Cl)nc1 please
Output line: inactive

Input line: Do the same for CCN1CCN(c2ccc(S(=O)(=O)N3CCCCC3)cc2NC(=O)c2cccc(NC(C)=O)c2)CC1 please
Output line: inactive

Input line: Do the same for NC(=O)c1cc(S(=O)(=O)NCCCc2ccco2)cs1 please
Output line: inactive

Input line: Do the same for Cc1c(CN2CCCC(C(=O)c3cccc(Cl)c3)C2)c(=O)n(-c2ccccc2)n1C (configuration not stated) please
Output line: inactive

Input line: Do the same for C#CC(CCN1CCCCC1)(OC)c1ccccc1 (configuration not stated) please
Output line: active

Input line: Do the same for COC(=O)c1ccccc1Sc1c(/C=N/OCc2ccc(Cl)cc2)c(C(F)(F)F)nn1C please
Output line: inactive

Input line: Do the same for COc1cccc(CNc2nc(NCc3ccccc3OC)nc3ccsc23)c1 please
Output line: inactive

Input line: Do the same for COc1ccc(C(O)(C2CCCCC2)C(CN2CCCC2)c2ccccc2)cc1 (configuration not stated) please
Output line: inactive

Input line: Do the same for CC(C)(C)N(CC#CCC(O)(c1ccccc1)C1CCCC1)CCO (configuration not stated) please
Output line: active

Input line: Do the same for CCN1/C(=C\c2ccc3ccccc3[n+]2CC)Sc2cc(C)ccc21 please
Output line: active

Input line: Do the same for CC(=O)N1CCc2c(sc(NC(=O)CCS(=O)(=O)c3ccc(C)cc3)c2C(N)=O)C1 please
Output line: inactive

Input line: Do the same for O=C(NC(Cc1ccc(O)cc1)C(=O)O)/C(=C/c1ccccc1)NC(=O)c1ccccc1 (configuration not stated) please
Output line: inactive

Input line: Do the same for c1ccc2cc3[nH]c(CN4CCCCC4)nc3cc2c1 please
Output line: inactive

Input line: Do the same for Cc1cc(=O)n2nc(N3CCCC3C(=O)NCCCN3CC(C)CC(C)C3)sc2n1 (configuration not stated) please
Output line: inactive

Input line: Do the same for COc1ccccc1OCc1nnc(SCC(N)=O)n1-c1ccccc1 please
Output line: inactive

Input line: Do the same for CC(CN1CCCCC1)c1ccccc1 (configuration not stated) please
Output line: inactive

Input line: Do the same for CCN(CC)P(=O)(C(NC(=O)OC)C(F)(F)C(F)(F)C(F)(F)C(F)F)N(CC)CC (configuration not stated) please
Output line: inactive

Input line: Do the same for CCc1cc(C(c2ccccc2OC)N2CCOCC2)c(NC(=O)c2ccccc2)s1 (configuration not stated) please
Output line: inactive

---

Target: Muscarinic acetylcholine receptor M4 (Homo sapiens)
Experiment: human M4 muscarinic receptor antagonists, primary screen, CHO cells, Fluo-8 calcium fluorescence (AID 624125);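 further: 0% = acetylcholine EC80 with DMSO and 100% = DMSO without agonist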
Settings: CHO-hM4 cells, ACh EC80, Fluo-8 calcium fluorescence; at 3 µM; active compounds read high
Out of some 360,000 compounds screened, about 2,600 (0.72%) were called active. This is one part of a sample in which actives are shown more often than they occur.
reported-endpoint: inhibition (%)
Your answer should be a plain number; it is taken to be in %.

>>> df
                                   molecule  value_measured
0  O=S(=O)(c1cccc(-c2cn3ccccc3n2)c1)N1CCCC1           -2.49
1               c1ccc2c(c1)OC1OC2Oc2ccccc21           -7.83
2  COc1ccc(OCC(=O)Nc2cc(C)c(Cl)cc2OC)c([N+](=O)[O-])c1            -4.9
3  Cc1cccc(CS(=O)(=O)c2ncc(Cl)c(C(=O)Nc3ccc(F)cc3)n2)c1            33.5
4  CCCCNC(=O)CSc1nc2ccc(NC(=O)CSc3nnc(N)s3)cc2s1            4.39
5  O=C(N[C@@H](Cc1ccccc1)C(=O)OCc1ccccc1)c1nc[nH]c1C(=O)N[C@@H](Cc1ccccc1)C(=O)OCc1ccccc1            2.96
6  COC(=O)c1ccccc1NC(=O)CN(Cc1ccc(Cl)cc1)S(C)(=O)=O            1.99
7        CCN(CC)Cc1nc2sc(C)c(C)c2c(=O)[nH]1            34.7
8  COc1ccc(C(CCN(Cc2ccc(OC)c(OC)c2)C(=O)CCl)c2ccccc2)cc1 (stereo not given)           -0.52
9         O=C(CS(=O)(=O)Cc1ccccc1)Nc1cccnc1           -2.16

Input line: Any idea what inhibition was measured for CCn1c2ccccc2c2cc(NC(=S)N3CCOCC3)ccc21 ?
Output line: 3.52

Input line: Do the same for COc1ccccc1C(=O)NC(=O)COC(=O)c1ccco1 please
Output line: -3.72

Input line: Do the same for O=CNc1cc(-c2ccc(C(=O)N3CCOCC3)cc2)cn2c(-c3ccc(F)cc3)cnc12 please
Output line: 0.14

Input line: Do the same for Cc1ccc(OCc2cc(C(=O)N(C)CCn3ccnc3C)no2)cc1C please
Output line: -0.14

Input line: Do the same for Cc1ccc(S(=O)(=O)N2CCCCC2)cc1NC(=O)CCNC(=O)c1ccccc1Cl please
Output line: -5.04

---

The entries below come with measured inhibition values attached.
Target: Muscarinic acetylcholine receptor M4 (Homo sapiens)
Assay: human M4 muscarinic receptor antagonists, primary screen, CHO cells, Fluo-8 calcium fluorescence (AID 624125);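 further: 0% = acetylcholine EC80 with DMSO and 100% = DMSO without agonist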
Settings: CHO-hM4 cells, ACh EC80, Fluo-8 calcium fluorescence; at 3 µM; active compounds read high
Out of some 360,000 compounds screened, about 2,600 (0.72%) were called active. Shown is part of a subset that was picked to be rich in actives.
Your answer should be a plain number; it is taken to be in %.

In [3]: df
Out[3]:
                                   molecule  reported_endpoint  unit_string  value_measured
0  CN(C(=O)CSc1nnc(-c2ccc(C(C)(C)C)cc2)n1C)C1CCS(=O)(=O)C1 (configuration not stated)         inhibition            %            0.43
1  CCCN1C(=O)C(NC(C)=O)c2cc(OC)ccc21 (configuration not stated)         inhibition            %            13.9
2  CCc1ccc(S(=O)(=O)NCC(O)COc2ccc(OC)cc2)cc1 (configuration not stated)         inhibition            %             -13
3  Cc1cc([N+](=O)[O-])c(NC2CCCCC2)c([N+](=O)[O-])c1         inhibition            %            7.51
4                O=C1CCCc2nn(-c3ccccc3)nc21         inhibition            %            2.29
5            Nc1cc2c(cc1Br)-c1ccc(F)cc1C2=O         inhibition            %            -3.7
6  O=C(NCCCc1ccccc1)c1cc(COc2c(F)cccc2F)on1         inhibition            %           -4.04
7  CCOC(=O)[C@H]1[C@H]2COc3ccccc3[C@@H]2N2C(=O)CN(Cc3ccccc3)C(=O)[C@@]12C         inhibition            %           -1.92

Input line: Any idea what inhibition was measured for Cc1c(Cl)cccc1NC(=O)CSc1ccc(-c2cccnc2)nn1 ?
Output line: 4.65

Input line: Do the same for Cc1cccc(C)c1NC(=O)C(c1cccc2ccccc12)n1c(=O)c(-c2ccco2)nc2ccccc21 (configuration not stated) please
Output line: -2.98

Input line: Do the same for CCCCSc1nc2c(c(=O)n1CC)SC(C)C2 (configuration not stated) please
Output line: -22.6

Input line: Do the same for CCOC(=O)[C@H]1[C@H]2COc3cc(OC)ccc3[C@@H]2N2C(=O)CN(Cc3ccc(Cl)cc3)C(=O)[C@@]12C please
Output line: 2.23

Input line: Do the same for CC(C)Cc1cc(C(=O)NCCc2ccccc2)no1 please
Output line: 101

Input line: Do the same for Cc1ccc(CNC(=O)Cn2cnc(S(=O)(=O)N3CCCCC3)c2)o1 please
Output line: -2.52

Input line: Do the same for CC(Sc1nncn1C)C(=O)Nc1cc(C(F)(F)F)ccc1N1CCOCC1 (configuration not stated) please
Output line: -5.32

Input line: Do the same for Cc1sc2ncnc(N3CCC(C(=O)NNC(=O)c4ccc(F)cc4)CC3)c2c1C please
Output line: -17.4

Input line: Do the same for Cn1c(=O)c2c(SCC(=O)NCC3CCCO3)nc(CC(C)(C)C)nc2n(C)c1=O (configuration not stated) please
Output line: 2.72
